# ASSAY SETUP: in cyclohexanone, 328.15 K

>  <LINE NOTATION>
COc1ccc(C(=O)O)cc1

>  <solubility (mole fraction)>
0.059

$$$$

----------
# ASSAY SETUP: in 2-butanone, 303.15 K
MEASURED QUANTITY: solubility (mole fraction)

>  <LINE NOTATION>
COc1ccc(C(=O)O)cc1

>  <MEASURED QUANTITY>
solubility (mole fraction)

>  <ASSAY VALUE>
0.0198

$$$$

----------
# ASSAY SETUP: in ethyl formate, 293.15 K
MEASURED QUANTITY: solubility (mole fraction)

>  <LINE NOTATION>
COc1ccc(C(=O)O)cc1

>  <ASSAY VALUE>
0.00606

$$$$
